Listed here: items and their measured koff.
biological target: His-tagged canine IL-31 (interleukin 31) recombinant protein (canine); assay: BLI (Gator), biotinylated antibody on streptavidin probe, canine IL-31 as analyte
Enter your answer as a number in s⁻¹; do not include the unit.

[
  {
    "Binder": "B2-mHvKv-canIgGB (antibody, V domains shown) VH: EVKLVESGGGLVQPGGSMKLSCAASGFTFSDAWMDWVRQSPERGLEWVAEIRSRAESHATYYAESVKGRFTISRDDSKGSVYLQMNSLGTEDTGIYYCTPASTMITTGWFAYWGQGTMVTVSS VL: NIVMTQSPAILSVTPGDRVSLSCRASQNISVYLHWYQQKSHDSPRVLIKYVSQSISGIPSRFSGSGSGSDFTLRINSVEPEDVGVYYCQNGHSFPYTFGGGTKLEIKR",
    "Measured": 0.000243
  }
]

// next item, koff requested
Looking for the measured koff of B2-H1K3-canIgGB (antibody, V domains shown) VH: EVQLVESGGDLVKPGGSLRLSCVASGFTFSDAWMDWVRQAPGKGLQWLAEIRSRAESHATYYAESVKGRFTISRDDAKNTVYLQMNSLRAEDTAVYYCTPASTMITTGWFAYWGQGTLVTVSS VL: EIVMTQTPLSLSVSPGELATISCRASQNISVYLHWYQQKPGQAPKVLIKYVSQSISGVPSRFSGSGSGSDFTLTISSVEAEDVGVYYCQNGHSFPYTFGQGTKLEIKR , can you help?
0.0015
